# Test Name: physchem
# Condition Description: pH 7.1, Solubility Conc.
Positions of bridges follow the written chain, without caps; N, C: chain ends. Non-standard residues stand in square brackets, D forms with d. Residues, ends and D or L forms follow the SMILES beside them. Groups on a side chain read outwards from the residue. *: point of attachment. Lys(CH2CO2H)2 = N[C@@H](CCCCN(CC(=O)O)CC(=O)O)C(=O)O; C16 diacid = O=C(O)CCCCCCCCCCCCCCC(=O)*; hCys = N[C@@H](CCS)C(=O)O; AEEA = NCCOCCOCC(=O)O
Observed Property: solubility (µM)
Answers are plain numbers, in µM.

Req: Note down solubility recorded for CC(=O)N[C@H]1CCSSC[C@@H](C(=O)N2CCC[C@H]2C(=O)N2CCC[C@H]2C(=O)N[C@@H](CCCCN)C(=O)N[C@@H](CCC(=O)O)C(=O)N[C@@H](CCCCN(CC(=O)O)CC(=O)O)C(=O)N[C@@H](CCCCNC(=O)COCCOCCNC(=O)CCCCCCCCCCCCCCC(=O)O)C(N)=O)NC(=O)[C@H](Cc2c[nH]c3ccccc23)NC(=O)[C@H](CCCNC(=N)N)NC(=O)[C@@H](Cc2ccccc2)NC(=O)[C@H](Cc2c[nH]cn2)NC1=O [Example 5] (Ac-[hCys]H[dF]RWCPPKE[Lys(CH2CO2H)2]K([AEEA-C16 diacid])-NH2; disulfide 1-6)
Resp: 489

###

# Test Name: physchem
# Condition Description: pH 7.6, Solubility Conc.
Positions of bridges follow the written chain, without caps; N, C: chain ends. Non-standard residues stand in square brackets, D forms with d. Residues, ends and D or L forms follow the SMILES beside them. Groups on a side chain read outwards from the residue. *: point of attachment. Lys(CH2CO2H)2 = N[C@@H](CCCCN(CC(=O)O)CC(=O)O)C(=O)O; C17 diacid = O=C(O)CCCCCCCCCCCCCCCC(=O)*; AEEA = NCCOCCOCC(=O)O
Observed Property: solubility (µM)
Answers are plain numbers, in µM.

Req: Item CC(=O)N[C@H]1CCCCNC(=O)CC[C@@H](C(=O)N2CCC[C@H]2C(=O)N2CCC[C@H]2C(=O)N[C@@H](Cc2c[nH]cn2)C(=O)N[C@@H](CCC(=O)O)C(=O)N[C@@H](CCCCN(CC(=O)O)CC(=O)O)C(=O)N[C@@H](CCCCNC(=O)COCCOCCNC(=O)CCCCCCCCCCCCCCCC(=O)O)C(N)=O)NC(=O)[C@H](Cc2c[nH]c3ccccc23)NC(=O)[C@H](CCCNC(=N)N)NC(=O)[C@@H](Cc2ccccc2)NC(=O)[C@H](Cc2c[nH]cn2)NC1=O [Example 7] (Ac-KH[dF]RWEPPHE[Lys(CH2CO2H)2]K([AEEA-C17 diacid])-NH2; lactam 1-6) : provide solubility
Resp: 448

###

For each entry below, report its solubility value.
# Test Name: physchem
# Condition Description: pH 7.3, Solubility Conc.
Positions of bridges follow the written chain, without caps; N, C: chain ends. Non-standard residues stand in square brackets, D forms with d. Residues, ends and D or L forms follow the SMILES beside them. Groups on a side chain read outwards from the residue. *: point of attachment. Lys(CH2CO2H)2 = N[C@@H](CCCCN(CC(=O)O)CC(=O)O)C(=O)O; X1 = O=C(O)CCCCCCCCCCCCCCCCC(=O)NCCOCCOCCN*; C17 diacid = O=C(O)CCCCCCCCCCCCCCCC(=O)*; C16 diacid = O=C(O)CCCCCCCCCCCCCCC(=O)*; hCys = N[C@@H](CCS)C(=O)O; Orn = NCCC[C@H](N)C(=O)O; Dab = NCC[C@H](N)C(=O)O; AEEA = NCCOCCOCC(=O)O
Please make sure the unit comes right after the number.

Some entries whose results are on file:
Compound: CC(=O)N[C@H]1CCSSC[C@@H](C(=O)N[C@@H](CO)C(=O)N2CCC[C@H]2C(=O)N[C@@H](CCCCN)C(=O)N[C@@H](CCC(=O)O)C(=O)N[C@@H](CCCCN(CC(=O)O)CC(=O)O)C(=O)N[C@@H](CCCCNC(=O)COCCOCCNC(=O)CCCCCCCCCCCCCCC(=O)O)C(N)=O)NC(=O)[C@H](Cc2c[nH]c3ccccc23)NC(=O)[C@H](CCCNC(=N)N)NC(=O)[C@@H](Cc2ccccc2)NC(=O)[C@H](Cc2c[nH]cn2)NC1=O [Example 60] (Ac-[hCys]H[dF]RWCSPKE[Lys(CH2CO2H)2]K([AEEA-C16 diacid])-NH2; disulfide 1-6)
solubility: 459 µM
--
Compound: CC(=O)N[C@H]1CSSC[C@@H](C(=O)N2CCC[C@H]2C(=O)N2CCC[C@H]2C(=O)N[C@@H](CCCCN)C(=O)N[C@@H](CCC(=O)O)C(=O)N[C@@H](CCC(=O)O)C(=O)N[C@@H](CCCCNC(=O)COCCOCCNC(=O)CCCCCCCCCCCCCCC(=O)O)C(N)=O)NC(=O)CNC(=O)[C@H](Cc2c[nH]c3ccccc23)NC(=O)[C@H](CCCNC(=N)N)NC(=O)[C@@H](Cc2ccccc2)NC(=O)[C@H](Cc2c[nH]cn2)NC(=O)[C@H](CCC(=O)O)NC1=O [Example 68] (Ac-CEH[dF]RWGCPPKEEK([AEEA-C16 diacid])-NH2; disulfide 1-8)
solubility: 181 µM
--
Compound: CC(=O)N[C@H]1CCSSC[C@@H](C(=O)N2CCC[C@H]2C(=O)N2CCC[C@H]2C(=O)N[C@@H](CCCCN)C(=O)N[C@@H](CCC(=O)O)C(=O)N[C@@H](CCCCN(CC(=O)O)CC(=O)O)C(=O)N[C@@H](CCCCNC(=O)COCCOCCNC(=O)CCCCCCCCCCCCCCC(=O)O)C(N)=O)NC(=O)[C@H](Cc2c[nH]c3ccccc23)NC(=O)[C@H](CCCNC(=N)N)NC(=O)[C@@H](Cc2ccccc2)NC(=O)[C@H](Cc2c[nH]cn2)NC1=O [Example 5] (Ac-[hCys]H[dF]RWCPPKE[Lys(CH2CO2H)2]K([AEEA-C16 diacid])-NH2; disulfide 1-6)
solubility: 496 µM
--
Compound: CC(=O)N[C@H]1CCCCNC(=O)C[C@@H](C(=O)N2CCC[C@H]2C(=O)N2CCC[C@H]2C(=O)N[C@@H](Cc2c[nH]cn2)C(=O)N[C@@H](CCC(=O)O)C(=O)N[C@@H](CCCCN(CC(=O)O)CC(=O)O)C(=O)N[C@@H](CCCCNC(=O)COCCOCCNC(=O)CCCCCCCCCCCCCCCC(=O)O)C(N)=O)NC(=O)[C@H](Cc2c[nH]c3ccccc23)NC(=O)[C@H](CCCNC(=N)N)NC(=O)[C@@H](Cc2ccccc2)NC(=O)[C@H](Cc2c[nH]cn2)NC1=O [Example 44] (Ac-KH[dF]RWDPPHE[Lys(CH2CO2H)2]K([AEEA-C17 diacid])-NH2; lactam 1-6)
solubility: 412 µM
--
Compound: CC(=O)N[C@H]1CCCCNC(=O)C[C@@H](C(=O)N2CCC[C@H]2C(=O)N[C@@H](CO)C(=O)N[C@@H](Cc2c[nH]cn2)C(=O)N[C@@H](CCC(=O)O)C(=O)N[C@@H](CCCCN(CC(=O)O)CC(=O)O)C(=O)N[C@@H](CCCCNC(=O)COCCOCCNC(=O)CCCCCCCCCCCCCCCC(=O)O)C(N)=O)NC(=O)[C@H](Cc2c[nH]c3ccccc23)NC(=O)[C@H](CCCNC(=N)N)NC(=O)[C@@H](Cc2ccccc2)NC(=O)[C@H](Cc2c[nH]cn2)NC1=O [Example 49] (Ac-KH[dF]RWDPSHE[Lys(CH2CO2H)2]K([AEEA-C17 diacid])-NH2; lactam 1-6)
solubility: 460 µM

Provide solubility for all items below, preserving their order.
1. CC(=O)N[C@H]1CCC(=O)NCCC[C@@H](C(=O)N2CCC[C@H]2C(=O)N2CCC[C@H]2C(=O)N[C@@H](CC(=O)O)C(=O)N[C@@H](CCCCN(CC(=O)O)CC(=O)O)C(=O)N[C@@H](CCCCNC(=O)COCCOCCNC(=O)CCCCCCCCCCCCCCC(=O)O)C(N)=O)NC(=O)[C@H](Cc2c[nH]c3ccccc23)NC(=O)[C@H](CCCNC(=N)N)NC(=O)[C@@H](Cc2ccccc2)NC(=O)[C@H](Cc2c[nH]cn2)NC1=O [Example 13] (Ac-EH[dF]RW[Orn]PPD[Lys(CH2CO2H)2]K([AEEA-C16 diacid])-NH2; lactam 1-6)
2. CC(=O)N[C@H]1CCCNC(=O)C[C@@H](C(=O)N2CCC[C@H]2C(=O)N2CCC[C@H]2C(=O)N[C@@H](Cc2c[nH]cn2)C(=O)N[C@@H](CCC(=O)O)C(=O)N[C@@H](CCCCN(CC(=O)O)CC(=O)O)C(=O)N[C@@H](CCCCNC(=O)COCCOCCNC(=O)CCCCCCCCCCCCCCC(=O)O)C(N)=O)NC(=O)[C@H](Cc2c[nH]c3ccccc23)NC(=O)[C@H](CCCNC(=N)N)NC(=O)[C@@H](Cc2ccccc2)NC(=O)[C@H](Cc2c[nH]cn2)NC1=O [Example 51] (Ac-[Orn]H[dF]RWDPPHE[Lys(CH2CO2H)2]K([AEEA-C16 diacid])-NH2; lactam 1-6)

Resp:
["467 µM", "468 µM"]

Req: For CC(=O)N[C@H]1CCNC(=O)C[C@@H](C(=O)N2CCC[C@H]2C(=O)N2CCC[C@H]2C(=O)N[C@@H](CCCNC(=N)N)C(=O)N[C@@H](CCC(=O)O)C(=O)N[C@@H](CCCCN(CC(=O)O)CC(=O)O)C(=O)N[C@@H](CO)C(=O)N[C@@H](CO)C(=O)NCCOCCOCCNC(=O)CCCCCCCCCCCCCCCCC(=O)O)NC(=O)[C@H](Cc2c[nH]c3ccccc23)NC(=O)[C@H](CCCNC(=N)N)NC(=O)[C@@H](Cc2ccccc2)NC(=O)[C@H](Cc2c[nH]cn2)NC1=O [Example 9] (Ac-[Dab]H[dF]RWDPPRE[Lys(CH2CO2H)2]SS-X1; lactam 1-6) , write its solubility.
Resp: 158 µM
